system: Mycosphaerella graminicola; Anamorph: Septoria tritici; Bayer Code SEPTTR; experiment: Leaf blotch of wheat, foliar fungicide treatment, one day protectant (1DP) or three day curative (3DC); type: in vivo, Septoria tritici on wheat plants (variety Yuma); conditions: Zymoseptoria tritici, 24 h, one day protectant (1DP), 100 ppm, rating of percent disease control, read-out: SEPTTR 1DP 100 ppm
Property label: pest or weed control at 100 ppm

Observe how each entry below is paired with its result.
>>> df
                                   molecule                   property_label  observed_result
0  COc1ccc(OC)c(COc2ncc(F)c(N)n2)c1 [Compound 351]  pest or weed control at 100 ppm       76 to 100%
1  CN(C)/C=N/c1nc(OS(=O)(=O)c2ccc(Cl)cc2)ncc1F [Compound 359]  pest or weed control at 100 ppm       76 to 100%
2  CCOCNc1nc(OCc2ccccc2)ncc1F [Compound 753]  pest or weed control at 100 ppm       76 to 100%
3  COc1ccc(Oc2ncc(F)c(NC(=O)Nc3ccsc3)n2)cc1 [Compound 737]  pest or weed control at 100 ppm         0 to 25%
4  Nc1nc(OCc2ccc(Cl)cc2Cl)ncc1F [Compound 540]  pest or weed control at 100 ppm       76 to 100%

### Prompt Value lookup for pest or weed control at 100 ppm; key = COC(=O)Oc1ncc(F)c(/N=C/N(C)C)n1 [Compound 517]
### Response 76 to 100%

### Prompt Value lookup for pest or weed control at 100 ppm; key = CC(C)Oc1ccc(COc2ncc(F)c(N)n2)cc1 [Compound 783]
### Response 76 to 100%

### Prompt Value lookup for pest or weed control at 100 ppm; key = CC1(COc2ncc(F)c(N)n2)COC1 [Compound 433]
### Response 0 to 25%

### Prompt Value lookup for pest or weed control at 100 ppm; key = CN(/C=N/c1nc(OCc2ccc(F)cc2)ncc1F)Cc1ccccc1 [Compound 292]
### Response 76 to 100%

### Prompt Value lookup for pest or weed control at 100 ppm; key = CN(C)/C=N/c1nc(OC(=O)C2CCCCC2)ncc1F [Compound 247]
### Response 76 to 100%
